# Test description: The equilibrium dissociation constant was measured experimentally for the compounds interaction with antithrombin.
# Assay type: ADME
Quantity name: pKd
# pKd is unitless: minus log10 of the molar concentration; print number only

Query: // query pKd value for entry `O=S(=O)(O)Oc1cc2c(c(OS(=O)(=O)O)c1)C[C@@H](OS(=O)(=O)O)[C@@H](c1ccc(OS(=O)(=O)O)c(OS(=O)(=O)O)c1)O2`
Response: 4.98
